Cellular growth rate (%) by entry:
# System: OVCAR-5
# test protocol: In vitro cytotoxicity, Development Therapeutics Program
# Format: cell-based
# condition: OVCAR-5, ovarian cancer; 1.0×10^−5 M
Give the number; % is assumed, so skip it.

Worked examples follow.
INSERT INTO results (compound, test_value) VALUES
  ('CN(C)CC(=O)Nc1ccc2c(c1)C(=O)c1cc(NC(=O)CN(C)C)ccc1C2=O [Compound 8]', 73.15),
  ('O=C1c2ccc(NC(=O)C3CC3)cc2C(=O)c2cc(NC(=O)C3CC3)ccc21 [Compound 32]', 112.01);

Memo: O=C(CCN1CCCC1)Nc1ccc2c(c1)C(=O)c1cc(NC(=O)CCN3CCCC3)ccc1C2=O [Compound 18] , reported Cellular growth rate (%): 18.81

Memo: CCN(CC)CCC(=O)Nc1ccc2c(c1)C(=O)c1cc(NC(=O)CCN(CC)CC)ccc1C2=O [Compound 16] , reported Cellular growth rate (%): 33.63

Memo: CC(=O)Nc1ccc2c(c1)C(=O)c1cc(NC(C)=O)ccc1C2=O [Compound 26, 2,7-Bis(acetamido)anthraquinone] , reported Cellular growth rate (%): 102.27

* * *

# test protocol: MTT assay in H1299 cells
# Format: cell-based
# condition: human, H1299 cells (H1299/PhTERT-driven SEAP reporter system); H1299; compound concentration 10 μM; read-out: MTT (Inhibition μM ± SD)
quantity name: viability at 24 h, 10 µM (%)
Give the number; % is assumed, so skip it.

Worked examples follow.
INSERT INTO measurements (line_notation, test_value) VALUES
  ('CC(C)CNCC(=O)Nc1ccc2c(c1)C(=O)c1cc(NC(=O)CNCC(C)C)ccc1C2=O', 39),
  ('CCCC(=O)Nc1ccc2c(c1)C(=O)c1cc(NC(=O)CCC)ccc1C2=O', 59),
  ('O=C(Nc1ccc2c(c1)C(=O)c1cc(NC(=O)c3ccccc3)ccc1C2=O)c1ccccc1', 47);

Memo: O=C(CCCl)Nc1ccc2c(c1)C(=O)c1cc(NC(=O)CCCl)ccc1C2=O , reported viability at 24 h, 10 µM: 44

Memo: CN1CCN(CC(=O)Nc2ccc3c(c2)C(=O)c2cc(NC(=O)CN4CCN(C)CC4)ccc2C3=O)CC1 , reported viability at 24 h, 10 µM: 71

Memo: CN(C)CCC(=O)Nc1ccc2c(c1)C(=O)c1cc(NC(=O)CCN(C)C)ccc1C2=O , reported viability at 24 h, 10 µM: 53

Memo: O=C(CCc1ccccc1)Nc1ccc2c(c1)C(=O)c1cc(NC(=O)CCc3ccccc3)ccc1C2=O , reported viability at 24 h, 10 µM: 94

* * *

# Test system: MDA-MB-231/ATCC
# test protocol: In vitro cytotoxicity, Development Therapeutics Program
# Type: cell-based
# condition: breast cancer, 1.0×10^−5 M
quantity name: Cellular growth rate (%)
Give the number; % is assumed, so skip it.

INSERT INTO measurements (line_notation, test_value) VALUES
  ('O=C1c2ccc(NC(=O)C3CC3)cc2C(=O)c2cc(NC(=O)C3CC3)ccc21', 97.05);

Memo: CN(C)CC(=O)Nc1ccc2c(c1)C(=O)c1cc(NC(=O)CN(C)C)ccc1C2=O , reported Cellular growth rate (%): 4.49

Memo: CC(=O)Nc1ccc2c(c1)C(=O)c1cc(NC(C)=O)ccc1C2=O , reported Cellular growth rate (%): 103.99

Memo: O=C(CCN1CCCC1)Nc1ccc2c(c1)C(=O)c1cc(NC(=O)CCN3CCCC3)ccc1C2=O , reported Cellular growth rate (%): 30.47

Memo: CCN(CC)CCC(=O)Nc1ccc2c(c1)C(=O)c1cc(NC(=O)CCN(CC)CC)ccc1C2=O , reported Cellular growth rate (%): 31.32
